Data origin, for the record: ChEMBL document CHEMBL5625170

ASSAY EXPLANATION: Cytotoxicity against african green monkey Vero cells assessed as cell viability measured after 48 hrs by MTT assay
Assay type: toxicity, cell-based
CONDITIONS USED: chlorocebus sabaeus
ENDPOINT LABEL: CC50 at 48 h (µM)
Only the number, expressed in µM, is required.

Query: Would you kindly share the measured CC50 at 48 h for CC(=O)c1cc(C)c(O)c(Cc2[nH]c3ccc(-c4c5ccccc5cc5ccccc45)cc3c2Cc2c(O)c(C)cc(C(C)=O)c2O)c1O ?
Reply: 1350

---

Each entry below lists one item and its recorded selectivity ratio value.
ASSAY EXPLANATION: Selectivity index, ratio of CC50 for cytotoxicity against dog MDCK cells to IC50 for anti-viral activity against Influenza A virus (A/Puerto Rico/8/34 infected in MDCK cells
Type: toxicity, cell-based
CONDITIONS USED: read-out: Selectivity Index

>>> observed("CC(=O)c1cc(C)c(O)c(Cc2[nH]c3cc(-c4cc(C(C)(C)C)cc(C(C)(C)C)c4)ccc3c2Cc2c(O)c(C)cc(C(C)=O)c2O)c1O")
10.4
>>> observed("CC(=O)c1cc(C)c(O)c(Cc2[nH]c3cc(-c4ccc(F)cc4)ccc3c2Cc2c(O)c(C)cc(C(C)=O)c2O)c1O")
13.4
>>> observed("COc1cc(-c2ccc3c(Cc4c(O)c(C)cc(C(C)=O)c4O)c(Cc4c(O)c(C)cc(C(C)=O)c4O)[nH]c3c2)cc(OC)c1OC")
"> 14.9"

Query: Reported selectivity ratio for CC(=O)c1cc(C)c(O)c(Cc2[nH]c3cc(-c4csc5ccccc45)ccc3c2Cc2c(O)c(C)cc(C(C)=O)c2O)c1O : what is it?
Reply: > 14.4

Query: Same question for COc1cccc(OC)c1-c1ccc2[nH]c(Cc3c(O)c(C)cc(C(C)=O)c3O)c(Cc3c(O)c(C)cc(C(C)=O)c3O)c2c1 please.
Reply: 12.9

Query: Same question, CC(=O)c1cc(C)c(O)c(Cc2[nH]c3ccc(Br)cc3c2Cc2c(O)c(C)cc(C(C)=O)c2O)c1O this time
Reply: 9.2

Query: What do we get for CC(=O)c1cc(C)c(O)c(Cc2[nH]c3ccc(-c4ccc5ncccc5c4)cc3c2Cc2c(O)c(C)cc(C(C)=O)c2O)c1O ?
Reply: > 16.2

Query: Field entry: CC(=O)c1cc(C)c(O)c(Cc2[nH]c3cc(-c4ccc(C)cc4)ccc3c2Cc2c(O)c(C)cc(C(C)=O)c2O)c1O
Reply: > 12.4

Query: Then what about the compound CC(=O)c1cc(C)c(O)c(Cc2[nH]c3ccc(-c4ccc5c(c4)OCCO5)cc3c2Cc2c(O)c(C)cc(C(C)=O)c2O)c1O ?
Reply: > 23.1

Query: Same question, COc1ccc(-c2ccc3[nH]c(Cc4c(O)c(C)cc(C(C)=O)c4O)c(Cc4c(O)c(C)cc(C(C)=O)c4O)c3c2)cc1 this time
Reply: > 18.4

Query: Moving on to the next compound: CC(=O)c1cc(C)c(O)c(Cc2[nH]c3cc(-c4c5ccccc5cc5ccccc45)ccc3c2Cc2c(O)c(C)cc(C(C)=O)c2O)c1O
Reply: > 36.1

Query: Same question for COc1ccc(-c2ccc3[nH]c(Cc4c(O)c(C)cc(C(C)=O)c4O)c(Cc4c(O)c(C)cc(C(C)=O)c4O)c3c2)cc1OC please.
Reply: > 16.6

Query: Similarly, CC(=O)c1cc(C)c(O)c(Cc2[nH]c3ccccc3c2Cc2c(O)c(C)cc(C(C)=O)c2O)c1O ?
Reply: > 11.8

Query: Same for COc1ccc(-c2ccc3c(Cc4c(O)c(C)cc(C(C)=O)c4O)c(Cc4c(O)c(C)cc(C(C)=O)c4O)[nH]c3c2)cc1
Reply: > 34.5

Query: Record: CC(=O)c1cc(C)c(O)c(Cc2[nH]c3ccc(-c4ccc(C)cc4)cc3c2Cc2c(O)c(C)cc(C(C)=O)c2O)c1O
Reply: > 19.4

Query: Same question, CC(=O)c1cc(C)c(O)c(Cc2[nH]c3cc(-c4cc(C)cc(C)c4)ccc3c2Cc2c(O)c(C)cc(C(C)=O)c2O)c1O this time
Reply: > 29.7

Query: Same again, this time with CCOC(=O)C1=C[C@@H](OC(CC)CC)[C@H](NC(C)=O)[C@@H](N)C1 [OSELTAMIVIR]
Reply: > 26.3

Query: Queued: CC(=O)c1cc(C)c(O)c(Cc2[nH]c3ccc(-c4ccc5ccccc5c4)cc3c2Cc2c(O)c(C)cc(C(C)=O)c2O)c1O
Reply: > 14.5

Query: // same read-out, input: COc1ccc2cc(-c3ccc4c(Cc5c(O)c(C)cc(C(C)=O)c5O)c(Cc5c(O)c(C)cc(C(C)=O)c5O)[nH]c4c3)ccc2c1
Reply: > 12.9

Query: Please do the same for CC(=O)c1cc(C)c(O)c(Cc2[nH]c3cc(-c4ccc5c(c4)OCCO5)ccc3c2Cc2c(O)c(C)cc(C(C)=O)c2O)c1O as well.
Reply: > 15.5

Query: Would you kindly repeat that for COc1cccc(OC)c1-c1ccc2c(Cc3c(O)c(C)cc(C(C)=O)c3O)c(Cc3c(O)c(C)cc(C(C)=O)c3O)[nH]c2c1 ?
Reply: > 15.4

Query: Can you handle CC(=O)c1cc(C)c(O)c(Cc2[nH]c3ccc(C)cc3c2Cc2c(O)c(C)cc(C(C)=O)c2O)c1O next?
Reply: > 14.6

Query: Same read-out for CC(=O)c1cc(C)c(O)c(Cc2[nH]c3cc(-c4ccccc4)ccc3c2Cc2c(O)c(C)cc(C(C)=O)c2O)c1O ?
Reply: > 12.8

Query: Again, but for CC(=O)c1cc(C)c(O)c(Cc2[nH]c3ccc(-c4csc5ccccc45)cc3c2Cc2c(O)c(C)cc(C(C)=O)c2O)c1O
Reply: > 12.8
